# target-entity: protein kinase A, catalytic subunit
# experiment-summary: cell-based or functional assay
Where no end group is shown, it is not given here. [ ]: non-standard residue; d: D form. hLeu = CC(C)CC[C@H](N)C(=O)O; GltNH2 = not defined here; Nva = CCC[C@H](N)C(=O)O; Abu = CC[C@H](N)C(=O)O; Dap = NC[C@H](N)C(=O)O; Ph2 = not defined here; GlyNH2 = aminoglycine
property-name: % Inhibition PKA (%)
Report as a plain number; the unit % is understood.

- binder: "RPRTS[GlyNH2]F [60005-5]"
  % Inhibition PKA / %: 40
- binder: "RPR[Nva][GlyNH2][Dap][Ph2] (reading uncertain) [60006-11B]"
  % Inhibition PKA / %: 20
- binder: "RPRTSA[hLeu] [TY 60002-50]"
  % Inhibition PKA / %: 2

Give % Inhibition PKA for the following binder: RPR[Nva][GlyNH2]A[hLeu] [60006-5A]
10

Give % Inhibition PKA for the following binder: RPR[Nva][GlyNH2][GltNH2][hLeu] (reading uncertain) [60006-16A]
21

Give % Inhibition PKA for the following binder: RPRTS[Abu][hLeu] [TY 60002-73]
8

Give % Inhibition PKA for the following binder: RPR[Nva][GlyNH2][Abu][hLeu] [60006-7B]
24
